Data provenance is patent US5827737A.

Measured target: K^b sol (Mus musculus, UniProt P01901)
Construct: K^b α1α2α3 domains (274 residues) and murine β2 microglobulin (99 residues); made in house; host or cells: Drosophila S2/M3 cells
Sequence (P01901 22-295): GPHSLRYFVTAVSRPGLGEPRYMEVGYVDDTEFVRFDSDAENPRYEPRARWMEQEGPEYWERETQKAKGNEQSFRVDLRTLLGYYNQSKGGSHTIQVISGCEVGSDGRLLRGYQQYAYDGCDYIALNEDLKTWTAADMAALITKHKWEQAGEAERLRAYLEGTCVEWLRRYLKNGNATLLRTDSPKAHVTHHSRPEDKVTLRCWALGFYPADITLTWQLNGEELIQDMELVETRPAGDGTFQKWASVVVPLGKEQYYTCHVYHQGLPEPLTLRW
Sequence (P01887 21-119 partner): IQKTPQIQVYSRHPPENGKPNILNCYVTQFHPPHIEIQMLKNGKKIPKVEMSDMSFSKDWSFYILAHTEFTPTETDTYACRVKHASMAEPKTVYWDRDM
Procedure summary: biochemical
Format: binding, murine
Where no end group is shown, it is not given here.
Property measured: log10(Kd) (log10 of the value in nM)

# Substance, Measured target, log10(Kd)
rows = [
    ("RGYVYQGLKS [VSV-10C]", "K^b sol (Mus musculus, UniProt P01901)", 1.32),
    ("RGYVYQGLK [VSV-9C]", "K^b sol (Mus musculus, UniProt P01901)", 0.84),
    ("DLRGYVYQGL [VSV-10N]", "K^b sol (Mus musculus, UniProt P01901)", 2.59),
    ("GYVYQGL [VSV-7, GYVYQGL]", "K^b sol (Mus musculus, UniProt P01901)", 1.72),
    ("LRGYVYQGL [VSV-9N]", "K^b sol (Mus musculus, UniProt P01901)", 0.86),
]
